# testSummary: limiting area and limiting radius of fatty acids
# Format: physicochemical
measurementType: Limiting radius (Å)

Here are 2 compounds together with their reported answers.
[[record]]
compound = "CCCCCCCC/C=C/CCCCCCCC(=O)O [Elaidic, elaidic acid]"
measurementtype = "Limiting radius"
observed = 3.24

[[record]]
compound = "CCCCC/C=C\\C/C=C\\CCCCCCCC(=O)O [Linoleic, linoleic acid]"
measurementtype = "Limiting radius"
observed = 3.91


(P) CCCCCCCC/C=C\CCCCCCCC(=O)O [Oleic, oleic acid]
(Q) CCCCCCCCCCCCCCCCCC(=O)O [Stearic, stearic acid]
Q: Response body: label of entry with the larger Limiting radius; valid values P , Q . Choose, then provide that item's label.
Result: P
